- Measurement description: soluble on expression in E. coli; label from the status in PepcDB or PDB records
Value kind: soluble on expression in E. coli

Sequence	Value kind	Reported measurement
MTVDSIPLNTGAQLPLFGLGTWQVKDEAELTVALRAALDAGYRLIDTAHLYQNEHIIGKVLHEYISSGKLKREDIFVTSKLPFTAHAPEDVPKCVESQLKALQLEYIDLYLIHCPFPFKHQEGSFAPLMENGELAVTEIAHIDTWRALEKLYKEGKLKALGVSNFSCNQLQALYDAAEVKPANQQVECHIYWPQQELRALCKKLGVTVTAYAPLGSPGRKAARPDGVWPEGDPLLEPIVKQLAAKYHKTAAQILIRHLTQHGISTIPKSVSPDRIVENISTFDFKLSDEDMHTLNSIETRTRLFIADFAVKHPFFPHDDIDTSKVPKVGIRLH	soluble on expression in E. coli	soluble
MSTDSQNPVRKSCAQPHSCSQEVRLKAMSRSPLTKGLNQLEHLELDKSLTAWSWAEDDPLYLAGENLNGSYLIVAGRVRVSRDTIDGKELTVDIATPGDVIGAIDTEPQPAVDSAWAIETTCALFLPATALATVIEQHPSFALAMIRMQQQRLATARDHEINLTTTTVEQRVAIAVRTLGRKIGQRRPDGILLIQVRIRREDVAGLAGTTVESTSRVLARLRKEGVIDSGREWIAVVDERQLDAIIGEDF	soluble on expression in E. coli	not soluble
MMKILPHVTNETAPLRTVVLGLPDSTGGAPALADTYDAKSYESVLRGTYPSDEDIKIEMDAVLDVLVRHGIEVLRPEPIANYNQIFARDVAFAIDDKLFVSNLIADRARESEAFSPIWDCVGESHLVRLSEDIHAEGGDILLYDDILFIGTYLQKDYPSFKTARTNARAVDFFREFFPHKTIIPIELIKHDTDPMRSVLHLDCAFQPVGRSRAIVYRQGFLHSESFGLITEIFGGRDNLFEITPEEAYMMNTNIFSISPDTVISEQNFVRLNNHLREAWGMTVEEVPYAEISKQGGLLRCSTMPLVRE	soluble on expression in E. coli	not soluble
AERGELDLTGAKQNTGVWLVKVPKYLSQQWAKASGRGEVGKLRIAKTQGRTEVSFTLNEDLANIHDIGGKPASVSAPREHPFVLQSVGGQTLTVFTESSSDKLSLEGIVVQRAECRPA	soluble on expression in E. coli	soluble
GYTLWNDQIVKDEEVKIDKEDRGYQFGDGVYEVVKVYNGEMFTVNEHIDRLYASAEKIRITIPYTKDKFHQLLHELVEKNELNTGHIYFQVTRGTSPRAHQFPENTVKPVIIGYTKENPRPLENLEKGVKATFVEDIRWLRCDIKSLNLLGAVLAKQEAHEKGCYEAILHRNNTVTEGSSSNVFGIKDGILYTHPANNMIAKGITRDVVIACANEINMPVKEIPFTTHEALKMDELFVTSTTSEITPVIEIDGKLIRDGKVGEWTRKLQKQFETKIPKPLHI	soluble on expression in E. coli	soluble
TVIYDKNEKQAGTLYGQKGTYVELDAISDDLENAVISTEDRSFYKNSGINYKRMLLAIVTLGYSGGGSTITQQLAKNAFLTQEQTVKRKAREFFLALELTKKYSKKEILTMYLNNAYFGNGVWGVEDASQKYFGTSASRLTLDEAATLAGMLKGPGIYNPLYSI	soluble on expression in E. coli	not soluble
MENPMNTDHTKRNLFELYAELIHQQEKWEGLIKAFLSDELRKLDVEHGSKSQLTMTEIHVLSCVGDNEPINVTSIAEKMNTTKATVSRISTKLLGAGFLHRTQLSDNKKEVYFRLTPAGKKLHSLHKYYHQKAEQRFLSFFDRYTEEEILFAERLFRDLVTKWYPSSEEIEGGLPSIFK	soluble on expression in E. coli	not soluble
MGSDKIHHHHHHASSCGDECPVEQPYSVRVSVKDKNYLNISQFPQLSQVDENLPFRTYAGTLYYALYDASTGALIRESAVVSTEGEEKEYTLTFPGVPDGDYKLAVWGNLTTDYPAGILHQDGKEHTDIYVTSGDLHFSPDYQTEELTLERTKGKLLLLCSNFPSEITRIEQNVSHVYQSTDAGLNYSGSTQVDKNVPFTSVLETLLAPTSAEGHSKLTLTFYTGGTRASETPYLKLPVMEMDMRRNEITAVSIDYNTSEGIWEIKMFIRGEWITIHRLDIF	soluble on expression in E. coli	not soluble
SSTGTFVVSQPLNYRGGARVEPADASGTEKAFEPATGRVIATFTCSGEKEVNLAVQNAKAAFKIWSQKSGMERCRILLEAARIIREREDEIATMECINNGKSIFEARLDIDISWQCLEYYAGLAASMAGEHIQLPGGSFGYTRREPLGVCVGIGAWNYPFQIASWKSAPALACGNAMVFKPSPFTPVSALLLAEIYSEAGVPPGLFNVVQGGAATGQFLCQHPDVAKVSFTGSVPTGMKIMEMSAKGIKPVTL	soluble on expression in E. coli	soluble
MGSDKIHHHHHHMNKHIASMLLGALLLNVGCSAIMSEKGFITQDKQVTQFNTEYIEKLAQSLPQHMVNQISIDGDEQVSLKGLFIDNPNSHTLVFFIQGNGMKVDPDSLAVLLTLSQLGTDIAIFDRRGLGASNGQATIANLLTDAIQELTFIRHTYQPDKVIVHGYSLGSFIAAQLVKNQAADALVMQGSATNVDDWIATKIPWYMPFLTVETPESFKLVDNQEVVSKFYQGPLMVIGAEKDDQVPAELSEKLFLASQSKIKSLIIVPKANHGEMLNSAKTMQAYREFLARI	soluble on expression in E. coli	not soluble
MARTAVPDNQPEITGFRIVLNNFEGPFDLLLQLISAKKLDVTDVALHKVTDDFVAYTRALGEFAELDEVTEFLVVAATLLDLKAARLLPRGEVDDLSDLELLESRDLLFARLLQYKAYKQVADQFARWQLAAQRRYPRAVGMEEQFSSLLPPVKISHTPKSFAELAASVFRPKPPDTVGTSHVHGVEVSVPEQAGKVLDLLVECGEGVWMDFPDLITGCRVSLEVVGRFLALLELYKARAVSLEQEESLGALRVSWTGIHVDPAIVAASNWA	soluble on expression in E. coli	not soluble

---

- Measurement description: soluble on expression in E. coli; label from the status in PepcDB or PDB records

Sequence	soluble on expression in E. coli
MNDPMGETGFSRESAPEIVFSETDMAAAEQLMHLSEEETVSCSSSTGGDCGGGGGDKIKHEYVSSRIGNELNDGVRGNSILGVEKKRKRTVMKEKKFRSLESIYKGTKEIRD	not soluble
MLDDCEASGFINDKRYAELLVRSNIARGHGPIRIRQAIAQKGLTKDCIEAALIATDYDWFELAKAKAKAKAIKKYGVPKVTEVKGSQSRELIAKEKAKRVRFLLSQGFSYEQVIYALDYDPLEDNDD	not soluble
MNIFVNMRIMVAHTPDPDDAFMFYGMFEGKIRTSNQYEQVIKDIETLNKESKEGKYEVTAISANGYVQVRDLYKLTRSGASFGISYGPIVVARNEIDLSKSRMGVPGFMTSSYLLYRMFGPEAKEYVEIKFDEIPDAILTGKVDAGILIHDEQLTFQKRGLKEVFDIYSAWKSYAGNLPIPLGFNAIRKDLDEDTVNKFLYDFERSIRYAMAHEEEAVKYAMKYARYTDLDLERRFVRMYVNELSIDFGDTGRKALELYYNRAAGKGLIPPFKPEIV	not soluble

---

- Measurement description: soluble on expression in E. coli; label from the status in PepcDB or PDB records

Sequence	soluble on expression in E. coli
MTKAELRRRARAAWRRLDLKALSRAVGAALLPWLRERGFRHILLYHPLPHELNLLPLMEAYPARYYLPKVAGKGLTVHPFGPLAPGPFGLLEPTTPPEDPRVLDLVVVPGLAFDREGYRLGHGQGFYDRFLKEVRAATVGVVPQALLFPALPRDPWDVPVDHLATEAGVEAVKRPAPGPGGLLD	soluble
SLPVINGAHVISMKNYTLVSDAYGEKGVKKVYEDEYLICENLKSFNKNLHPNFNFACFCLFDGHNGKNTAMFLKRNLAQELSNSFLEMQNTYDSSLPIPDHFIKISVNNTCKRIDERIAQEYPNSRDGATCVIVLIKDEYAYIINIGDSCAYLCRYLNNSNQAIELVDIHKPWVITEKERIIKHGGTIENGRVNDIIDVTRSFGDLSLKKYGLLCTGTFKKFKINSDDNFIILGTDGFFGSVDINYVINEITNLSKKEERLVNVEKKKTVFDAKSICNIMVEHAIVDKKSQDNVTVVLIKFLHKKGNSSTTTTTTEIRLLTKPERKLSWLLPPLSNN	soluble

---

- Measurement description: soluble on expression in E. coli; label from the status in PepcDB or PDB records

Sequence	soluble on expression in E. coli
MFALVLAAGRSRRFDGDKRKALLPCGRTLLTACLETAGKVFTETGVVLREDDEVQTLGIPSKVTIIRCKHADLGMGHSLAAGIAAALNSSADAVAILLADMPWIEPQTLRDLARLADPQRIALPMHEGQRGHPVIIGRRFWPRLLALEGDQGAKALITNNPAFCDVMNCDDPGVLRDADTRSALAIACRQHLTAGRDLEHHHHHH	not soluble
GGGVKAFAFIGALQVLEENGFSFTRVAGTSAGAIFASLVCSGYRSDELFSIMEQLDGKMFKDGGKVMPFPFAKWLRLYFKLGMYKGDQLEKWLIQVLGHKGVSTFADLPKGALKIVASDISRGRLIVLPDDLKDYGLIPERFSVARAVRMSCGIPYFFQPVKLYNRKRRGERSYVVDGGILSNFPIWL	not soluble
